Molecular target: ~100 representative kinases (Homo sapiens, UniProt P21675)
Construct: Recombinant protein kinase domains with a concentration of 2 μM
Sequence (P21675 whole entry, the tested form may be a part): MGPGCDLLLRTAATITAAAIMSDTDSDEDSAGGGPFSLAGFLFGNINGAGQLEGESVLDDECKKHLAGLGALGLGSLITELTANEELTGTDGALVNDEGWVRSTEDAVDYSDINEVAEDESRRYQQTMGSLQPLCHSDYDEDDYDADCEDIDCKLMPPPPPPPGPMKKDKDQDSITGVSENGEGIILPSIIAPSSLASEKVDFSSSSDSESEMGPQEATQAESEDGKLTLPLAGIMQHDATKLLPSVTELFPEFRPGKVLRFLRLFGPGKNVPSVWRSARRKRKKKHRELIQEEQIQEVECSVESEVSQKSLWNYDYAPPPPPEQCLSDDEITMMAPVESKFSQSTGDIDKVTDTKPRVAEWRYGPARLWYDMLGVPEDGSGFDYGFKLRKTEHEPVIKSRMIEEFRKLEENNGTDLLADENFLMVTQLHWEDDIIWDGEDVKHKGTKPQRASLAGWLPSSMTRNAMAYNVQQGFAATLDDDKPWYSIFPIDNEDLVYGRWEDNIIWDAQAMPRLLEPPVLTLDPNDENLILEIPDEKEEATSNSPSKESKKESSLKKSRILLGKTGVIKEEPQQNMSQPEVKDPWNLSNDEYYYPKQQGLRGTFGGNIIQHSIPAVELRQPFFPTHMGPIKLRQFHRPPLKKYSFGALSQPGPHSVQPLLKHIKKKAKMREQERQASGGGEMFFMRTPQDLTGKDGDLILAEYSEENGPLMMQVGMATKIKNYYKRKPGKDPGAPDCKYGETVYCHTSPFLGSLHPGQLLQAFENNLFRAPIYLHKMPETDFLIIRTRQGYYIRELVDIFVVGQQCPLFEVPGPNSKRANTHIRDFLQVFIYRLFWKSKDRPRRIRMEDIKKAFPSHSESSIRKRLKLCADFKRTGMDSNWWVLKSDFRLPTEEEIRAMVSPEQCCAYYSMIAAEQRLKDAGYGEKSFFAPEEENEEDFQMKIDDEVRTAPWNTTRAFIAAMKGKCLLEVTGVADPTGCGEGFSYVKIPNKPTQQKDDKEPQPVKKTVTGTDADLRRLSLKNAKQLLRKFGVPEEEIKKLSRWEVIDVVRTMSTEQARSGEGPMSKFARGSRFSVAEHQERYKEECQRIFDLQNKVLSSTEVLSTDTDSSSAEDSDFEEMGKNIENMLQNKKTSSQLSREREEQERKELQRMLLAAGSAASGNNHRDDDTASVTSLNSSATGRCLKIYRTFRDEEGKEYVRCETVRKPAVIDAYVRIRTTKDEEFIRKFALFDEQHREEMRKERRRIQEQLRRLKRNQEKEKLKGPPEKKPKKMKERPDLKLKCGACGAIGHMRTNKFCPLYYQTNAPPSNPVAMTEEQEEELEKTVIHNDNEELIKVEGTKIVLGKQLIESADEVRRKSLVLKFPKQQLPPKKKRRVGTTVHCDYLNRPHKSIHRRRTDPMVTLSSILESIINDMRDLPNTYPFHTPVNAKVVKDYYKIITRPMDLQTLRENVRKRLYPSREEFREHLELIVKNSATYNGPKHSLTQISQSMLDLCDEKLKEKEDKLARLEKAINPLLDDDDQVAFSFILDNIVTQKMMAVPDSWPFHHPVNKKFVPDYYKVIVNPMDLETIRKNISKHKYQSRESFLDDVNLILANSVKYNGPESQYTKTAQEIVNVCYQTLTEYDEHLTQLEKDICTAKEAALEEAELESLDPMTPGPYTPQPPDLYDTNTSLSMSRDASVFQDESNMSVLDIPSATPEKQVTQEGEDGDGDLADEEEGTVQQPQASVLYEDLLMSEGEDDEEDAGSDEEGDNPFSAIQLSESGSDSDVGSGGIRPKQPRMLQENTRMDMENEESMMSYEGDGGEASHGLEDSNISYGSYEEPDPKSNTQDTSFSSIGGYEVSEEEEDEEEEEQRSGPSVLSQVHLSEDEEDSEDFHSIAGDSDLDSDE
Assay: DSF 100 kinase selectivity screen;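 also: compound tested at 20 µM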
Format: binding
Conditions: Protein TAF1; DSF; average of three replicates
VALUE_TYPE: dTm (K)

{"columns": ["COMPOUND", "TARGET_OR_SYSTEM", "NUMERIC_VALUE"],
 "data": [
  ["Cc1ccc(NC(=O)C2(C(=O)Nc3cccc(-c4c[nH]c5ncnc(N6CCOCC6)c45)c3)CC2)cc1 [Compound 14]", "~100 representative kinases (Homo sapiens, UniProt P21675)", 0.34],
  ["COc1cc(C(=O)N2CCOCC2)c(F)cc1Nc1nc(N(C)C)c2c(Cl)c[nH]c2n1 [Compound 36]", "~100 representative kinases (Homo sapiens, UniProt P21675)", 1.23],
  ["O=C(Nc1ccc(Cl)cc1)C1(C(=O)Nc2cccc(-c3c[nH]c4ncnc(N5CCOCC5)c34)c2)CC1 [Compound 13]", "~100 representative kinases (Homo sapiens, UniProt P21675)", 1.29],
  ["C[C@@H]1CN(c2cc(-c3n[nH]c4ccc(OC5(C)CC5)cc34)ncn2)C[C@H](C)O1 [MLi2]", "~100 representative kinases (Homo sapiens, UniProt P21675)", -0.34],
  ["O=C(Nc1cccc(-c2c[nH]c3ncnc(N4CCOCC4)c23)c1)C1(C(=O)Nc2cccc3c2CCC3)CC1 [Compound 11]", "~100 representative kinases (Homo sapiens, UniProt P21675)", -5.02],
  ["CNC(=O)c1cc(Oc2ccc(NC(=O)Nc3cc(C(C)(C)C)nn3-c3ccc4ncccc4c3)c(F)c2)ccn1 [Rebastinib, reference compound]", "~100 representative kinases (Homo sapiens, UniProt P21675)", -2.54],
  ["O=C(Nc1ccccc1)C1(C(=O)Nc2cccc(-c3c[nH]c4ncnc(N5CCOCC5)c34)c2)CC1 [Compound 12]", "~100 representative kinases (Homo sapiens, UniProt P21675)", -0.82]
]}

====

Biological target: DDR2 (Homo sapiens, UniProt Q16832)
Sequence (Q16832 22-855): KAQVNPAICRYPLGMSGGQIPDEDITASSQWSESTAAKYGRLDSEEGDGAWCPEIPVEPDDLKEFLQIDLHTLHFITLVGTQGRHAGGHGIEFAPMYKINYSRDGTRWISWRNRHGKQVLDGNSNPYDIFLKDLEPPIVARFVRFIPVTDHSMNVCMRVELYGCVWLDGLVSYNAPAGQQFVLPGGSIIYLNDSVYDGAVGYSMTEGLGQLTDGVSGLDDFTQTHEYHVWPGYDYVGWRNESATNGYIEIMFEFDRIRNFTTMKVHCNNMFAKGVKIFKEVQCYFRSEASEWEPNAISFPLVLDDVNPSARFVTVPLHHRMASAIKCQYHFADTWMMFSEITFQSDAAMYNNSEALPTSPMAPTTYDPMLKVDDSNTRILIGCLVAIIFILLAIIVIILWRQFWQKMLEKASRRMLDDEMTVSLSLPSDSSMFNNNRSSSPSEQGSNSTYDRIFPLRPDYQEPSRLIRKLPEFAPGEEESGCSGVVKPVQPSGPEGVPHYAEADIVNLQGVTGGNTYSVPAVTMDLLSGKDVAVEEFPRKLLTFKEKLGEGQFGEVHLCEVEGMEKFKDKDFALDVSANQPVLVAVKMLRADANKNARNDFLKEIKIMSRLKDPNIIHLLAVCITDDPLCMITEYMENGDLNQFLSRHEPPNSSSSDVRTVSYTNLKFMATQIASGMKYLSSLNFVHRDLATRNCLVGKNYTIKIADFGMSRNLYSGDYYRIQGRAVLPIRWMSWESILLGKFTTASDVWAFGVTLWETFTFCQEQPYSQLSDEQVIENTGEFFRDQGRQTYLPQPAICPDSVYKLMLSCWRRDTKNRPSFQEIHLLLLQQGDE
Test: nanoBRET off-target validation
pEC50: −log10 of the molar value.

{"columns": ["SMILES_STR", "pEC50"],
 "data": [
  ["CCSc1nc(NC)c2c(-c3cccc(NC(=O)Nc4cc(C(C)(C)C)nn4-c4ccc(C)cc4)c3)c[nH]c2n1", "< 4.70"]
]}

====

Target: ~100 representative kinases (Homo sapiens, UniProt Q96NX5)
Construct: Recombinant protein kinase domains with a concentration of 2 μM
Sequence (Q96NX5 whole entry, the tested form may be a part): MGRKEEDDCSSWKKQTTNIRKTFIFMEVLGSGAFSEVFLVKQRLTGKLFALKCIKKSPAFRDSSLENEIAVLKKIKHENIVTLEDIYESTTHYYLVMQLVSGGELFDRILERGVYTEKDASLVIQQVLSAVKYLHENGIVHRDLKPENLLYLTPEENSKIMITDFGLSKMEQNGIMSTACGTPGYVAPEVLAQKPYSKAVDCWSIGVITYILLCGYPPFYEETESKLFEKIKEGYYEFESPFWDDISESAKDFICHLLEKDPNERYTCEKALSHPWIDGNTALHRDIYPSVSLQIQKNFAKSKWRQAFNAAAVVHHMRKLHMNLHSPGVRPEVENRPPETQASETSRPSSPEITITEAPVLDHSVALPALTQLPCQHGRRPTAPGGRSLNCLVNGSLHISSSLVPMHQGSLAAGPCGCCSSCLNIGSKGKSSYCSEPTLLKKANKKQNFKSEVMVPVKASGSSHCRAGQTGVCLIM
Assay: DSF 100 kinase selectivity screen;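 also: compound tested at 20 µM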
Format: binding
Conditions: Protein CAMK1G; average of three replicates

{"columns": ["COMPOUND", "TARGET_OR_SYSTEM", "dTm"],
 "data": [
  ["O=C(Nc1ccccc1)C1(C(=O)Nc2cccc(-c3c[nH]c4ncnc(N5CCOCC5)c34)c2)CC1", "~100 representative kinases (Homo sapiens, UniProt Q96NX5)", "1.89 K"],
  ["CC(=O)N1CCN(c2nc(Cl)nc3[nH]cc(-c4cccc(NC(=O)Nc5cc(C(C)(C)C)nn5-c5ccc(C)cc5)c4)c23)CC1", "~100 representative kinases (Homo sapiens, UniProt Q96NX5)", "0.05 K"],
  ["Cc1ccc(C(=O)Nc2ccc(CN3CCN(C)CC3)c(C(F)(F)F)c2)cc1C#Cc1cnc2cccnn12 [Ponatinib, reference compound]", "~100 representative kinases (Homo sapiens, UniProt Q96NX5)", "1.16 K"],
  ["COc1cc2c(Oc3ccc(NC(=O)C4(C(=O)Nc5ccc(F)cc5)CC4)cc3F)ccnc2cc1OCCCN1CCOCC1 [Foretinib, reference compound]", "~100 representative kinases (Homo sapiens, UniProt Q96NX5)", "3.09 K"],
  ["O=C(Nc1cc(F)cc(Br)c1)C1(C(=O)Nc2cccc(-c3c[nH]c4ncnc(N5CCOCC5)c34)c2)CC1", "~100 representative kinases (Homo sapiens, UniProt Q96NX5)", "3.15 K"],
  ["Cc1ccc(C(=O)Nc2ccc(CN3CCN(C)CC3)c(C(F)(F)F)c2)cc1C#Cc1cnc2[nH]ncc2c1 [GZD-824, reference compound]", "~100 representative kinases (Homo sapiens, UniProt Q96NX5)", "0.14 K"]
]}

====

Reported values of dTm for individual entries
Molecular target: ~100 representative kinases (Homo sapiens, UniProt Q99986)
Construct: Recombinant protein kinase domains with a concentration of 2 μM
Sequence (Q99986 whole entry, the tested form may be a part): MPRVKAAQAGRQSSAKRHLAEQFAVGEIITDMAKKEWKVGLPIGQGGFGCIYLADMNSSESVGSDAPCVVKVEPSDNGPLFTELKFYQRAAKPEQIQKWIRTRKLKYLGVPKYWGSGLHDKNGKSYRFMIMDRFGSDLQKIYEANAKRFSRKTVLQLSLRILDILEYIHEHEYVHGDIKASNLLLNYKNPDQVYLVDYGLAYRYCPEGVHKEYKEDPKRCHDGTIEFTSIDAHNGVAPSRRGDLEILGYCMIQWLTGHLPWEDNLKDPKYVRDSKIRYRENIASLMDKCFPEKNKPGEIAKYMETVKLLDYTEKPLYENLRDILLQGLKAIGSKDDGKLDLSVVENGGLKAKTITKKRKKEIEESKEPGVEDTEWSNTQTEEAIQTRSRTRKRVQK
Test: DSF 100 kinase selectivity screen;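 also: compound tested at 20 µM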
Format: binding
Settings: Protein VRK1; DSF; average of three replicates

{"columns": ["COMPOUND", "dTm, K"],
 "data": [
  ["COc1ccc(NC(=O)C2(C(=O)Nc3cccc(-c4c[nH]c5ncnc(N6CCOCC6)c45)c3)CC2)cc1 [Compound 16]", 0.60],
  ["O=C(Nc1ccc(Cl)cc1)C1(C(=O)Nc2cccc(-c3c[nH]c4ncnc(N5CCOCC5)c34)c2)CC1 [Compound 13]", 2.20],
  ["C[C@@H]1CN(c2cc(-c3n[nH]c4ccc(OC5(C)CC5)cc34)ncn2)C[C@H](C)O1 [MLi2]", 0.11],
  ["CC(C)(C)c1cc(NC(=O)Nc2cccc(-c3c[nH]c4ncnc(N5CCOCC5)c34)c2)n(-c2ccc3ncccc3c2)n1 [Compound 28]", 1.63],
  ["O=C(Nc1ccccc1)C1(C(=O)Nc2cccc(-c3c[nH]c4ncnc(N5CCOCC5)c34)c2)CC1 [Compound 12]", 0.69],
  ["O=C(Nc1ccc(F)cc1)C1(C(=O)Nc2cccc(-c3c[nH]c4ncnc(N5CCOCC5)c34)c2)CC1 [Compound 2]", 0.75],
  ["CCSc1nc(NC)c2c(-c3cccc(NC(=O)Nc4cc(C(C)(C)C)nn4-c4ccc(C)cc4)c3)c[nH]c2n1 [Compound 32]", -0.68]
]}

====

Target: ~100 representative kinases (Homo sapiens, UniProt O14965)
Construct: Recombinant protein kinase domains with a concentration of 2 μM
Sequence (O14965 whole entry, the tested form may be a part): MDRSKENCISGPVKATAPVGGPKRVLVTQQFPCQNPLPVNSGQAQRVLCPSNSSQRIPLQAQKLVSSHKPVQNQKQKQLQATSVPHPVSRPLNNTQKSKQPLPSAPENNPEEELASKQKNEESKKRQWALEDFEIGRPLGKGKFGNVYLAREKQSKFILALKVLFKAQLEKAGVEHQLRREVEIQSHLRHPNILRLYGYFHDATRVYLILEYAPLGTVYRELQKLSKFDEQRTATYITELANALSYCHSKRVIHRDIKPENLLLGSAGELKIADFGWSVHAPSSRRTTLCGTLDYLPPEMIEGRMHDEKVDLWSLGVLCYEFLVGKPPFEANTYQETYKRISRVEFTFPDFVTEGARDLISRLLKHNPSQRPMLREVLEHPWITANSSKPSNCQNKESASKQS
Assay: DSF 100 kinase selectivity screen;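 also: compound tested at 20 µM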
Assay type: binding
Conditions: Protein STK6; DSF; average of three replicates
Reported values of log10 dTm for individual entries
VALUE_TYPE: log10 dTm (log10 of the value in K)

{"columns": ["MOLECULE", "TARGET_OR_SYSTEM", "log10 dTm"],
 "data": [
  ["C[C@@H]1CN(c2cc(-c3n[nH]c4ccc(OC5(C)CC5)cc34)ncn2)C[C@H](C)O1 [MLi2]", "~100 representative kinases (Homo sapiens, UniProt O14965)", -0.77],
  ["Cc1ccc(-n2nc(C(C)(C)C)cc2NC(=O)Nc2cccc(-c3c[nH]c4nc(Cl)nc(N5CCOCC5)c34)c2)cc1 [Compound 30]", "~100 representative kinases (Homo sapiens, UniProt O14965)", 0.08],
  ["CCc1ccc(NC(=O)C2(C(=O)Nc3cccc(-c4c[nH]c5ncnc(N6CCOCC6)c45)c3)CC2)cc1 [Compound 15]", "~100 representative kinases (Homo sapiens, UniProt O14965)", 0.98],
  ["COc1ccc(NC(=O)C2(C(=O)Nc3cccc(-c4c[nH]c5ncnc(N6CCOCC6)c45)c3)CC2)cc1 [Compound 16]", "~100 representative kinases (Homo sapiens, UniProt O14965)", 0.74],
  ["Cc1ccc(C(=O)Nc2ccc(CN3CCN(C)CC3)c(C(F)(F)F)c2)cc1C#Cc1c[nH]c2ncnc(N3CCOCC3)c12 [Compound 1]", "~100 representative kinases (Homo sapiens, UniProt O14965)", 1.10],
  ["O=C(Nc1cccc(-c2c[nH]c3ncnc(N4CCOCC4)c23)c1)C1(C(=O)Nc2ccc(F)c(F)c2)CC1 [Compound 17]", "~100 representative kinases (Homo sapiens, UniProt O14965)", 0.86]
]}
